# Test system: Saccharomyces cerevisiae
# method: protein stability index of tFT-peptide fusion (C-terminal peptide) (PSI (0-1 scale)); higher = more stable (slower turnover)
# test.parameters: genetic background: wild type; temperature: 30 C
experimental.readout: protein stability index
Answers are plain numbers.

Need protein stability index for each of these sequences.
1. LSLVDCIGFFFC
2. RLIEDREWLGSR
3. AFRGGGVPGDFA

-- reply
1: 0.603; 2: 0.721; 3: 0.624

// input: 5 sequences below; output: protein stability index for each
1. GVSKALAAAVDA
2. VLTSSVLPSFFP
3. PPLSHPPPPLPL
4. FTGAVGPCTCRY
5. RYNPPRGIHNDL

-- reply
1. 0.687
2. 0.627
3. 0.681
4. 0.731
5. 0.651

For every item below, please supply its protein stability index.
1. TSFCIFFVRFVI
2. CPTVLWPRSPRN
3. LGNMRTVEGWGG
4. RTGKVKNINISI
5. ADVVVGWWVSGW
6. GADGARGVPGAG
7. VVAALTPLITVA
8. NYNGVRRYNGFK

-- reply
1. 0.322
2. 0.688
3. 0.684
4. 0.711
5. 0.791
6. 0.662
7. 0.261
8. 0.574

Go through the items and report each one's protein stability index.
1. PPPAPRPPLSLP
2. RLPAPPPHPPPP
3. PISLSFPPPLHP

-- reply
0.621
0.704
0.65

----------
# System: Saccharomyces cerevisiae
# method: protein stability index of tFT-peptide fusion (C-terminal peptide) (PSI (0-1 scale)); higher = more stable (slower turnover)
# test.parameters: genetic background: das1 deletion; temperature: 30 C
experimental.readout: protein stability index
Give bare numbers.

NLKLKFNENIME [DIT2 C-terminal 12 aa] = 0.695

Hey, quick one: what's protein stability index for each of these?
1. ESVSYLFTHAPV [PRS2 C-terminal 12 aa]
2. EEVETVSEHVKV [DPA10 C-terminal 12 aa]
3. PARESMLHKEIK [ADE12 C-terminal 12 aa]
4. EMLGDKVNKKGI [SOK1 C-terminal 12 aa]

-- reply
1. 0.734
2. 0.678
3. 0.745
4. 0.727

-- ask Using the record for ATCGSSTYFARK [MCO8 C-terminal 12 aa] , state its measured protein stability index.
-- reply 0.694

----------
# System: Saccharomyces cerevisiae
# method: protein stability index of tFT-peptide fusion (C-terminal peptide) (PSI (0-1 scale)); higher = more stable (slower turnover)
# test.parameters: genetic background: wild type; temperature: 30 C
experimental.readout: protein stability index
Answers are plain numbers.

Use the examples below as a reference point.
GKKRANQSRSLP = 0.76
TLYEVHQSENSR = 0.666
PVSTINLNIQST = 0.836

Would you mind listing protein stability index for each of the following sequences?
1. APLFPLTPLAPP
2. TRTSRGRTLTTL
3. GDHPPMETISRP

-- reply
[0.733, 0.583, 0.734]

State the recorded protein stability index for every item in the following list.
1. CYGVGTVGLRRG
2. PLLRRLFPLSSR
3. ALAPCLPESIGN
4. DLHFAVVFPISR
5. FGVGGAVGWRLR
6. LMKSPGGTLTIR
7. KLSLRYLLVSLI

-- reply
[0.712, 0.608, 0.676, 0.733, 0.677, 0.71, 0.188]

State the recorded protein stability index for every item in the following list.
1. RFLVVVRFYWRC
2. VSGNLITLRCFT
3. REWDRRGRSHHF
4. LGVGGRWGGPGA
5. HLLRGSSPDRYV

-- reply
[0.439, 0.596, 0.769, 0.691, 0.737]

-- ask Jot down protein stability index (Saccharomyces cerevisiae) of HDHRTLMRQPTR .
-- reply 0.697
